target desc: UniProtKB Q86VL8
Sequence (Q86VL8 1-566 isoform Q86VL8-3): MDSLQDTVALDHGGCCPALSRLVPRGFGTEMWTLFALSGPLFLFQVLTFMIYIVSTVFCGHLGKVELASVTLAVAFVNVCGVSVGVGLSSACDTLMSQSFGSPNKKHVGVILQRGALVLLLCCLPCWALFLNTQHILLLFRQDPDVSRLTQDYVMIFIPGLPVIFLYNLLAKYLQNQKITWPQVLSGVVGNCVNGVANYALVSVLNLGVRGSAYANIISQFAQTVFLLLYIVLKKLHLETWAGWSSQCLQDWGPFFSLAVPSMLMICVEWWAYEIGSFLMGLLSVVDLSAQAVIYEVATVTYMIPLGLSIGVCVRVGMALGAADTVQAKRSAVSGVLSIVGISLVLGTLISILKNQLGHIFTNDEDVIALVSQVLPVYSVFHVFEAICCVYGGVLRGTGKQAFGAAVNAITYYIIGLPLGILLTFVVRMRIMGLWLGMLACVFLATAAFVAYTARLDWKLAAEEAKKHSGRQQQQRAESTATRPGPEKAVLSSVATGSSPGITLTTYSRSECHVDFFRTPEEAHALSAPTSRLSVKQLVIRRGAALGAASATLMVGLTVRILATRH
test: Uptake ratio in MATE2K-overexpressing HEK293 cells vs empty vector (2.5 μM, 1 min, HPLC-MS/MS)
Type: cell-based
Below: a set of entries, each annotated with reported MATE2K ratio.
Provide a numeric answer; units are not to be included.

# example entries with known answers
compound=CNCCc1c[nH]c2ccc(O)cc12 reported_property="MATE2K ratio" reported_measurement=8.85
compound=CN(CC(=O)O)C(=N)N reported_property="MATE2K ratio" reported_measurement=1.07
compound=NCCCC[C@H](N)C(=O)O reported_property="MATE2K ratio" reported_measurement=1.05
compound="CNCCCC1(c2ccc(F)cc2)OCc2cc(C#N)ccc21 (stereo not shown)" reported_property="MATE2K ratio" reported_measurement=1.09
compound=COc1ccc2c3c([nH]c2c1)C(C)=NCC3 reported_property="MATE2K ratio" reported_measurement=1.15
compound="CCC1(c2cccc(O)c2)CCCCN(C)C1 (stereo not shown)" reported_property="MATE2K ratio" reported_measurement=1.57
compound="COc1cc2c(cc1OC)-c1c(C)c3ccc(OC)c(OC)c3c[n+]1CC2 [Dehydrocorydaline]" reported_property="MATE2K ratio" reported_measurement=2.85
compound=NC(=O)NCCC[C@H](N)C(=O)O reported_property="MATE2K ratio" reported_measurement=1.26
compound=NCc1ccc(O)cc1 reported_property="MATE2K ratio" reported_measurement=1.09
compound=CN(C)CCc1c[nH]c2ccccc12 reported_property="MATE2K ratio" reported_measurement=1.28

Proceeding to the next compound to report its MATE2K ratio.
Consider NCCc1cc(O)c(O)cc1O [6-Hydroxydopamine] . Its measured MATE2K ratio is 1.24
